Listed here: items and their measured GLP-1 receptor activation relative to Val^8-GLP-1(7-37)OH.
Molecular target: GLP-1 receptor
Assay: cell-based or functional assay
Where no end group is shown, it is not given here.
readoutName: GLP-1 receptor activation relative to Val^8-GLP-1(7-37)OH

INSERT INTO results (binder, valuemeasured) VALUES
  ('HVEGTFTSDVSIYLEEQAAKEFIAWLVKGRG-OH [Val^8-Ile^18-Glu^22-GLP-1(7-37)OH]', '4 fold of Val^8-GLP-1(7-37)OH'),
  ('HVEGTFTSDLSSYLEEQAAKEFIAWLVKGRG-OH [Val^8-Leu^16-Glu^22-GLP-1(7-37)OH]', '4.3 fold of Val^8-GLP-1(7-37)OH'),
  ('HVEGTWTSDVSSYLEGQAAKEFIAWLVKGRG-OH [Val^8-Trp^12-GLP-1(7-37)OH]', '1.1 fold of Val^8-GLP-1(7-37)OH'),
  ('HVEGTFTSDVSFYLEEQAAKEFIAWLVKGRG-OH [Val^8-Phe^18-Glu^22-GLP-1(7-37)OH]', '2 fold of Val^8-GLP-1(7-37)OH'),
  ('HVEGTFTSDLSSYLEGQAAKEFIAWLVKGRG-OH [Val^8-Leu^16-GLP-1(7-37)OH]', '1.1 fold of Val^8-GLP-1(7-37)OH'),
  ('HVEGTFTSDVSSYLEEQAIKEFIAWLVKGRG-OH [Val^8-GLU^22-Ile^25-GLP-1(7-37)OH]', '3.1 fold of Val^8-GLP-1(7-37)OH'),
  ('HVEGTYTSDVSSYLEEQAAKEFIAWLVKGRG-OH [Val^8-Tyr^12-Glu^22-GLP-1(7-37)OH]', '2.7 fold of Val^8-GLP-1(7-37)OH'),
  ('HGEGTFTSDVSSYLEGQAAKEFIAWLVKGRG-OH [Gly^8-GLP-1(7-37)OH]', '1.7 fold of Val^8-GLP-1(7-37)OH'),
  ('HVDGIFTSDYSSYLEEQAAKEFIAWLVKGRG-OH [Val^8-Asp^9-Ile^11-Tyr^16-Glu^22-GLP-1(7-37)OH]', '4.3 fold of Val^8-GLP-1(7-37)OH'),
  ('HVEGTFTSDVSSYFEEQAAKEFIAWLVKGRG-OH [Val^8-Phe^20-Glu^22-GLP-1(7-37)OH]', '2.7 fold of Val^8-GLP-1(7-37)OH'),
  ('HVEGTYTSDVSSYLEGQAAKEFIAWLVKGRG-OH [Val^8-Tyr^12-GLP-1(7-37)OH]', '1.7 fold of Val^8-GLP-1(7-37)OH'),
  ('HVEGTFTSDVSSFLEEQAAKEFIAWLVKGRG-OH [Val^8-Phe^19-Glu^22-GLP-1(7-37)OH]', '1.5 fold of Val^8-GLP-1(7-37)OH'),
  ('HVEGTFTSDVSSYLEGQAAKEFIEWLVKGRG-OH [Val^8-Glu^30-GLP-1(7-37)OH]', '0.7 fold of Val^8-GLP-1(7-37)OH');
